meta.source: ChEMBL document CHEMBL1806350

System under test: Mu-type opioid receptor (Homo sapiens, UniProt P35372)
Sequence (P35372 whole entry): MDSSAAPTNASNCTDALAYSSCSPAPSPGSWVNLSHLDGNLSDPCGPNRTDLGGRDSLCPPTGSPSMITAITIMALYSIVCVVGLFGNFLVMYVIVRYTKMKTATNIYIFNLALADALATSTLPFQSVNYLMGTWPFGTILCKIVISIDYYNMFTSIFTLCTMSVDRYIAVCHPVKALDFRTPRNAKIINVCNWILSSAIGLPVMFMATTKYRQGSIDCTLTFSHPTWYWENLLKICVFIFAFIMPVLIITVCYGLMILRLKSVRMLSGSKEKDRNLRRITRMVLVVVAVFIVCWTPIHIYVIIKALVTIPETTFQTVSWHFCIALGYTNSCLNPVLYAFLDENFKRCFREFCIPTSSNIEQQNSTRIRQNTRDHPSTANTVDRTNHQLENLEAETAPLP
Measurement description: biochemical
Assay type: cell-based, CHO
pKi: −log10 of the molar value.

[
  {
    "Compound": "Oc1ccc2c(c1)[C@]13CCN(CCc4ccccc4)[C@H](CC[C@H]1O2)C3 (racemic)",
    "Operator symbol": "=",
    "pKi": 6.31
  },
  {
    "Compound": "Oc1cccc2c1O[C@@H]1CC[C@H]3C[C@@]21CCN3CCc1ccccc1",
    "Operator symbol": "=",
    "pKi": 7.31
  },
  {
    "Compound": "Oc1ccc2c(c1)[C@@]13CCN(CCc4ccccc4)[C@@H](CC[C@H]1O2)C3",
    "Operator symbol": "=",
    "pKi": 6.45
  },
  {
    "Compound": "CN1CC[C@]23C[C@H]1CC[C@H]2Oc1ccc(O)cc13 (racemic)",
    "Operator symbol": "<",
    "pKi": 5.55
  },
  {
    "Compound": "Oc1cccc2c1O[C@@H]1CC[C@@H]3C[C@]21CCN3CCc1ccccc1 (racemic)",
    "Operator symbol": "=",
    "pKi": 6.78
  },
  {
    "Compound": "Oc1ccc2c(c1)[C@]13CCN(CCc4ccccc4)[C@H](CC[C@@H]1O2)C3",
    "Operator symbol": "=",
    "pKi": 6.60
  },
  {
    "Compound": "CN1CC[C@]23C[C@H]1CC[C@H]2Oc1c(O)cccc13 (racemic)",
    "Operator symbol": "<",
    "pKi": 5.55
  }
]

----------
System under test: Kappa-type opioid receptor (Homo sapiens, UniProt P41145)
Sequence (P41145 whole entry): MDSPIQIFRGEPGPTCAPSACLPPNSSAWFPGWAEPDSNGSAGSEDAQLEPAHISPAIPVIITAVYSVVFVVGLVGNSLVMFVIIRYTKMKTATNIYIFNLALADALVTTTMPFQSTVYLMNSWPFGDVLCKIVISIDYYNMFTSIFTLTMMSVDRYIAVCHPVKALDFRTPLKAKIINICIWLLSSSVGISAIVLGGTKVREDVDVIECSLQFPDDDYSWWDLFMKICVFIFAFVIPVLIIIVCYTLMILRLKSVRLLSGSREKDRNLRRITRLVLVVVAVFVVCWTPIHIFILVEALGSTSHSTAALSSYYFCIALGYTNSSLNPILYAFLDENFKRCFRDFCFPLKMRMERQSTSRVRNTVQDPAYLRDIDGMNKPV
Experimental context: CHO
Description: Antagonist activity at human kappa opioid receptor expressed in CHO cells coexpressing human recombinant KOP after 3 hrs by [35S]GTPgammaS binding assay
Value kind: log10 of Ke (log10 of the value in nM)

[
  {
    "Molecule": "Oc1ccc2c(c1)[C@@]13CCN(CCc4ccccc4)[C@@H](CC[C@H]1O2)C3",
    "log10 of Ke": 2.01
  },
  {
    "Molecule": "Oc1cccc2c1O[C@H]1CC[C@@H]3C[C@]21CCN3CCc1ccccc1",
    "log10 of Ke": 2.88
  },
  {
    "Molecule": "Oc1cccc2c1O[C@@H]1CC[C@@H]3C[C@]21CCN3CCc1ccccc1 (racemic)",
    "log10 of Ke": 2.21
  },
  {
    "Molecule": "Oc1ccc2c(c1)[C@]13CCN(CCc4ccccc4)[C@H](CC[C@H]1O2)C3 (racemic)",
    "log10 of Ke": 1.66
  },
  {
    "Molecule": "Oc1ccc2c(c1)[C@]13CCN(CCc4ccccc4)[C@H](CC[C@@H]1O2)C3",
    "log10 of Ke": 2.00
  },
  {
    "Molecule": "Oc1cccc2c1O[C@@H]1CC[C@H]3C[C@@]21CCN3CCc1ccccc1",
    "log10 of Ke": 1.34
  }
]

----------
System under test: Delta-type opioid receptor (Homo sapiens)
Sequence (P41143 whole entry): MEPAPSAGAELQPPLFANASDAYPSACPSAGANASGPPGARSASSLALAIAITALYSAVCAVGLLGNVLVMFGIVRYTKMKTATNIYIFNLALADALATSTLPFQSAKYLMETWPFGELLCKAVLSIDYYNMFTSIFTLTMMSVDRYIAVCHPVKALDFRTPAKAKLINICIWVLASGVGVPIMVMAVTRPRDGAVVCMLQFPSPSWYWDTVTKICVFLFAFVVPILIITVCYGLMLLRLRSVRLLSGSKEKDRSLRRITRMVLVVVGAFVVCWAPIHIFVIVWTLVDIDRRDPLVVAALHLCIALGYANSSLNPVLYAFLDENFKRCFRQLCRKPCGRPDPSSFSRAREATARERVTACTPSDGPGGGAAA
Measurement description: Displacement of [125I]IOXY from human delta opioid receptor expressed in CHO cells coexpressing human recombinant DOR after 2 hrs by liquid scintillation counting
Format: cell-based
Measured Ki of individual entries

[
  {
    "Compound": "CN1CC[C@]23C[C@H]1CC[C@H]2Oc1ccc(O)cc13 (racemic)",
    "System under test": "Delta-type opioid receptor (Homo sapiens)",
    "Ki": "> 4.9 µM"
  },
  {
    "Compound": "Oc1ccc2c(c1)[C@]13CCN(CCc4ccccc4)[C@H](CC[C@@H]1O2)C3",
    "System under test": "Delta-type opioid receptor (Homo sapiens)",
    "Ki": "> 5 µM"
  },
  {
    "Compound": "CN1CC[C@]23C[C@H]1CC[C@H]2Oc1c(O)cccc13 (racemic)",
    "System under test": "Delta-type opioid receptor (Homo sapiens)",
    "Ki": "> 4.9 µM"
  },
  {
    "Compound": "Oc1cccc2c1O[C@@H]1CC[C@H]3C[C@@]21CCN3CCc1ccccc1",
    "System under test": "Delta-type opioid receptor (Homo sapiens)",
    "Ki": "> 5 µM"
  },
  {
    "Compound": "Oc1ccc2c(c1)[C@]13CCN(CCc4ccccc4)[C@H](CC[C@H]1O2)C3 (racemic)",
    "System under test": "Delta-type opioid receptor (Homo sapiens)",
    "Ki": "> 4.9 µM"
  },
  {
    "Compound": "Oc1ccc2c(c1)[C@@]13CCN(CCc4ccccc4)[C@@H](CC[C@H]1O2)C3",
    "System under test": "Delta-type opioid receptor (Homo sapiens)",
    "Ki": "> 5 µM"
  },
  {
    "Compound": "Oc1cccc2c1O[C@@H]1CC[C@@H]3C[C@]21CCN3CCc1ccccc1 (racemic)",
    "System under test": "Delta-type opioid receptor (Homo sapiens)",
    "Ki": "> 4.9 µM"
  }
]
